Listed compounds paired with reported GI50
System: HCT-15
Field format: number, assumed µM, no unit text.

Field: GI50 (HCT-15). Entry: O=C(Oc1cc(=O)c(OC(=O)c2ccccc2)co1)c1ccccc1
42.6

Continuing:
Field: GI50 (HCT-15). Entry: CCCCCCCCCC1CC(=O)Oc2cccc(O)c21 (stereo not drawn)
23.4

Field: GI50 (HCT-15). Entry: O=S(=O)(/N=C(\NO)Nc1ccc(Cl)cc1)c1cccc2nsnc12
18.3

Field: GI50 (HCT-15). Entry: N#CC(C(=O)c1cccnc1Cl)c1nc2cc(C(F)(F)F)ccc2s1 (stereo not drawn)
35.3

----------
Test system: NCI/ADR-RES
Assay: NCI tumour cell line growth inhibition, 48 h
Active and inactive are the calls of the source. Rule as the data show it: active = GI50 up to about 1.1 µM and inactive = higher.
Listed molecules paired with reported GI50

Record excerpt, results attached:
Field request: GI50 | item: O=C1CCC[C@]2(CCC[C@@H](O)C2)N1
> 100 µM (inactive)

Field request: GI50 | item: CC(C)(CO)NC(=O)Nc1c(C(F)(F)F)cc(-c2ccccc2)[nH]c1=O
> 100 µM (inactive)

Field request: GI50 | item: CCOC(=O)COC1=Nc2cc(OC)c(OC)c3nc(Cl)cc(c23)C1=O
2.97 µM (inactive)

Continuing:
Field request: GI50 | item: COc1ccc(N2C(=O)C3c4[nH]c5c(C)cccc5c4C4CCC(c5ccccc5)CC4C3C2=O)cc1 (centres undefined)
30.3 µM (inactive)

Taken from ChEMBL document CHEMBL1201862.
